# MEASURED_TARGET: T1, human IL-36R extracellular domain expressed with a C-terminal myc-myc-hexahistidine tag (hIL-36R-MMH) (human, UniProt Q9HB29 20-337)
# T1 construct: also called Human IL-36R-MMH; REGN2105
# T1 sequence (Q9HB29 other isoform, or with tags, fused parts or gaps limits assumed): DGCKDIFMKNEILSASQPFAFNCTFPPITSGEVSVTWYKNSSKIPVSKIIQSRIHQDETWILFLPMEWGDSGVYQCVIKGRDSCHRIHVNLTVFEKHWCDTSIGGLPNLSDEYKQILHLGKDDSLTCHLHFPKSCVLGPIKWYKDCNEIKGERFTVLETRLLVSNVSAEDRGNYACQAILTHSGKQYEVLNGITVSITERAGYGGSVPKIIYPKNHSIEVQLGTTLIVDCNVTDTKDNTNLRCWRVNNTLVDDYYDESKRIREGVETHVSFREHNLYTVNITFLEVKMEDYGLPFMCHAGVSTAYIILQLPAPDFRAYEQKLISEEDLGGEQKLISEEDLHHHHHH
# ASSAY_COMMENT: SPR Biacore T200, mAb captured on anti-hFc, 25C, PBS-T pH 7.4 running buffer
Catalogue of t1/2 values
Reply with just the number (in min).

BINDER	t1/2 (min)
H4H14700P2 (antibody, human IgG4 S228P, kappa, V domains shown, Fully human anti-IL-36R antibody) VH: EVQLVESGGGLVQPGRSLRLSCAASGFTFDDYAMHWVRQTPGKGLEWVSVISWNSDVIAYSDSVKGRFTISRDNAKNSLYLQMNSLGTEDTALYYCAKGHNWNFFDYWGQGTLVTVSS VL: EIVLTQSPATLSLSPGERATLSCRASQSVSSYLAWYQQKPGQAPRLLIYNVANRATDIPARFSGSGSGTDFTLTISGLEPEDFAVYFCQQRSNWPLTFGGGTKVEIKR	15

Field: next binder
**Q:** Fill blank: measured t1/2 of the binder H4H14758P (antibody, human IgG4 S228P, kappa, V domains shown, Fully human anti-IL-36R antibody) VH: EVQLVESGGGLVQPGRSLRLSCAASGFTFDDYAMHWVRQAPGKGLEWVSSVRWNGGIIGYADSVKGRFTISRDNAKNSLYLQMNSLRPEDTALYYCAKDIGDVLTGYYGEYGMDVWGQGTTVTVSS VL: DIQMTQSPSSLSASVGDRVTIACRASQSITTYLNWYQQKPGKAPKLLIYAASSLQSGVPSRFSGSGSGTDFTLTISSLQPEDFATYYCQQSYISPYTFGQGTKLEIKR is ____.
**A:** 10

The reported numbers originate from patent US20200017592A1.
